# System: Mycobacterium avium
# Test Parameters: 104
Measurement Name: MIC (µg/mL)
Reply with just the number (in µg/mL).

[
  {
    "Compound": "CCCOc1ccc(-c2cn(CCN3CCCCCC3)c3ccccc3c2=O)cc1",
    "Reported Result": 1
  },
  {
    "Compound": "CSc1ccc2c(c1)N(CCC1CCCCN1C)c1ccccc1S2 (stereo not given)",
    "Reported Result": 4
  },
  {
    "Compound": "CCCOc1ccc(-c2cn(CCN(CC)CC)c3ccccc3c2=O)cc1",
    "Reported Result": 2
  }
]

Now for a further compound.
Prompt: Kindly indicate its recorded MIC. Item: CN(C)CCCN1c2ccccc2Sc2ccc(Cl)cc21
Response: 2

This collection of values is drawn from ChEMBL document CHEMBL4130462.
